target: histidine kinase HK853 (Thermotoga maritima, UniProt Q9WZV7); assay: biochemical; conditions: IC50, purine derivatives, TABLE 2; N/I = no inhibition
Sequence (Q9WZV7 232-489): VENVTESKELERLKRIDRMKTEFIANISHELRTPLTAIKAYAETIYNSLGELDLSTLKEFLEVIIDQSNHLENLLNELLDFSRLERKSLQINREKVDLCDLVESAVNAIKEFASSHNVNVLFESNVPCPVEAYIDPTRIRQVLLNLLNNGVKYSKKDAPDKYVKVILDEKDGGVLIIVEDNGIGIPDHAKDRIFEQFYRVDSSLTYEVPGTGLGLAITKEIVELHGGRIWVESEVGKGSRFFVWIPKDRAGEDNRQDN
pIC50: −log10 of the molar value.
Measured pIC50, listed per entry.
Recorded Endpoint: pIC50

[
  {
    "Compound": "Cn1cnc2c(N)ncnc21",
    "Recorded Endpoint": "pIC50",
    "Recorded Number": 3.82
  },
  {
    "Compound": "Nc1nc(F)nc2c1ncn2C1OC(CO)C(O)C1O (centres unmarked)",
    "Recorded Endpoint": "pIC50",
    "Recorded Number": 3.66
  }
]

###

target: UniProt Q9WZV7; conditions: purine derivatives, TABLE 2; N/I = no inhibition
Quick reference: IC50 of the listed items.
Recorded Endpoint: IC50 (µM)

[
  {
    "Chemical Structure": "Nc1nc(F)nc2[nH]cnc12",
    "Recorded Number": 310
  },
  {
    "Chemical Structure": "Nc1nc(Cl)nc2[nH]cnc12",
    "Recorded Number": 156
  },
  {
    "Chemical Structure": "Nc1nc(Cl)c2nc[nH]c2n1",
    "Recorded Number": 118
  }
]
